All values here come from patent US20230072421A1.

- Tested on: LNCaP human prostate cancer cells
- TEST NAME: LNCaP xenograft efficacy study (T/C tumor area)
- Assay type: in vivo, SCID mice
- RUN PARAMETERS: Example IV; day 36 after start of therapy; once 1 MBq/kg
Quick reference for T/Carea among some compounds

{"COMPOUND": "O=C([O-])CN1CCN(CC(=O)[O-])CCN(CC(=O)NCc2ccc(C(=O)N[C@@H](Cc3ccc4ccccc4n3)C(=O)NCCCC[C@H](NC(=O)N[C@@H](CCC(=O)O)C(=O)O)C(=O)O)nc2)CCN(CC(=O)[O-])CC1.[227Th+4] [Example 34-B-227Th]", "T/Carea": 0.66}
{"COMPOUND": "Cc1cc(C(=O)NCCN(CCCN(CCNC(=O)c2cc(C)n(CC(=O)O)c(=O)c2[O-])CCNC(=O)c2cc(C)n(CC(=O)NCC3CCC(C(=O)NC(Cc4ccc5ccccc5c4)C(=O)NCCCCC(NC(=O)NC(CCC(=O)O)C(=O)O)C(=O)O)CC3)c(=O)c2[O-])CCNC(=O)c2cc(C)n(CC(=O)NCC3CCC(C(=O)NC(Cc4ccc5ccccc5c4)C(=O)NCCCCC(NC(=O)NC(CCC(=O)O)C(=O)O)C(=O)O)CC3)c(=O)c2[O-])c([O-])c(=O)n1CC(=O)O.[227Th+4] (stereo not drawn) [1-C dimer-227Th]", "T/Carea": 0.48}
{"COMPOUND": "Cc1cc2c(c(=O)n1CC(=O)O)[O][227Th]13[O]c4c(cc(C)n(CC(=O)O)c4=O)C(=O)NCCN(CCCN(CCNC2=O)CCNC(=O)c2cc(C)n(CC(=O)NCc4ccc(C(=O)N[C@@H](Cc5ccc6ccccc6n5)C(=O)NCCCC[C@H](NC(=O)N[C@@H](CCC(=O)O)C(=O)O)C(=O)O)nc4)c(=O)c2[O]1)CCNC(=O)c1cc(C)n(CC(=O)NCc2ccc(C(=O)N[C@@H](Cc4ccc5ccccc5n4)C(=O)NCCCC[C@H](NC(=O)N[C@@H](CCC(=O)O)C(=O)O)C(=O)O)nc2)c(=O)c1[O]3 [34-C dimer-227Th]", "T/Carea": 0.46}
{"COMPOUND": "Cc1cc2c(c(=O)n1CC(=O)O)[O][227Th]13[O]c4c(cc(C)n(CC(=O)O)c4=O)C(=O)NCCN(CCCN(CCNC(=O)c4cc(C)n(CC(=O)O)c(=O)c4[O]1)CCNC(=O)c1cc(C)n(CC(=O)NCc4ccc(C(=O)N[C@@H](Cc5ccc6ccccc6n5)C(=O)NCCCC[C@H](NC(=O)N[C@@H](CCC(=O)O)C(=O)O)C(=O)O)nc4)c(=O)c1[O]3)CCNC2=O [34-C monomer-227Th]", "T/Carea": 0.51}
{"COMPOUND": "O=C([O-])CN1CCN(CC(=O)[O-])CCN(CC(=O)NCC2CCC(C(=O)NC(Cc3ccc4ccccc4c3)C(=O)NCCCCC(NC(=O)NC(CCC(=O)O)C(=O)O)C(=O)O)CC2)CCN(CC(=O)[O-])CC1.[227Th+4] [Example 1-B-D-227Th]", "T/Carea": 0.81}
{"COMPOUND": "Cc1cc(C(=O)NCCN(CCCN(CCNC(=O)c2cc(C)n(CC(=O)O)c(=O)c2[O-])CCNC(=O)c2cc(C)n(CC(=O)NCC3CCC(C(=O)NC(Cc4cnc5ccccc5c4)C(=O)NCCCCC(NC(=O)NC(CCC(=O)O)C(=O)O)C(=O)O)CC3)c(=O)c2[O-])CCNC(=O)c2cc(C)n(CC(=O)NCC3CCC(C(=O)NC(Cc4cnc5ccccc5c4)C(=O)NCCCCC(NC(=O)NC(CCC(=O)O)C(=O)O)C(=O)O)CC3)c(=O)c2[O-])c([O-])c(=O)n1CC(=O)O.[227Th+4] (stereo not drawn) [Example 22-C dimer-227Th]", "T/Carea": 0.67}
